Reference source for all entries: patent US9902696B2

Could you please report measured pIC50 for the items listed next?
Molecular target: recombinant human baculovirus-expressed GST-tagged FASN (Homo sapiens, UniProt P49327)
Construct: GST
Sequence (P49327 whole entry): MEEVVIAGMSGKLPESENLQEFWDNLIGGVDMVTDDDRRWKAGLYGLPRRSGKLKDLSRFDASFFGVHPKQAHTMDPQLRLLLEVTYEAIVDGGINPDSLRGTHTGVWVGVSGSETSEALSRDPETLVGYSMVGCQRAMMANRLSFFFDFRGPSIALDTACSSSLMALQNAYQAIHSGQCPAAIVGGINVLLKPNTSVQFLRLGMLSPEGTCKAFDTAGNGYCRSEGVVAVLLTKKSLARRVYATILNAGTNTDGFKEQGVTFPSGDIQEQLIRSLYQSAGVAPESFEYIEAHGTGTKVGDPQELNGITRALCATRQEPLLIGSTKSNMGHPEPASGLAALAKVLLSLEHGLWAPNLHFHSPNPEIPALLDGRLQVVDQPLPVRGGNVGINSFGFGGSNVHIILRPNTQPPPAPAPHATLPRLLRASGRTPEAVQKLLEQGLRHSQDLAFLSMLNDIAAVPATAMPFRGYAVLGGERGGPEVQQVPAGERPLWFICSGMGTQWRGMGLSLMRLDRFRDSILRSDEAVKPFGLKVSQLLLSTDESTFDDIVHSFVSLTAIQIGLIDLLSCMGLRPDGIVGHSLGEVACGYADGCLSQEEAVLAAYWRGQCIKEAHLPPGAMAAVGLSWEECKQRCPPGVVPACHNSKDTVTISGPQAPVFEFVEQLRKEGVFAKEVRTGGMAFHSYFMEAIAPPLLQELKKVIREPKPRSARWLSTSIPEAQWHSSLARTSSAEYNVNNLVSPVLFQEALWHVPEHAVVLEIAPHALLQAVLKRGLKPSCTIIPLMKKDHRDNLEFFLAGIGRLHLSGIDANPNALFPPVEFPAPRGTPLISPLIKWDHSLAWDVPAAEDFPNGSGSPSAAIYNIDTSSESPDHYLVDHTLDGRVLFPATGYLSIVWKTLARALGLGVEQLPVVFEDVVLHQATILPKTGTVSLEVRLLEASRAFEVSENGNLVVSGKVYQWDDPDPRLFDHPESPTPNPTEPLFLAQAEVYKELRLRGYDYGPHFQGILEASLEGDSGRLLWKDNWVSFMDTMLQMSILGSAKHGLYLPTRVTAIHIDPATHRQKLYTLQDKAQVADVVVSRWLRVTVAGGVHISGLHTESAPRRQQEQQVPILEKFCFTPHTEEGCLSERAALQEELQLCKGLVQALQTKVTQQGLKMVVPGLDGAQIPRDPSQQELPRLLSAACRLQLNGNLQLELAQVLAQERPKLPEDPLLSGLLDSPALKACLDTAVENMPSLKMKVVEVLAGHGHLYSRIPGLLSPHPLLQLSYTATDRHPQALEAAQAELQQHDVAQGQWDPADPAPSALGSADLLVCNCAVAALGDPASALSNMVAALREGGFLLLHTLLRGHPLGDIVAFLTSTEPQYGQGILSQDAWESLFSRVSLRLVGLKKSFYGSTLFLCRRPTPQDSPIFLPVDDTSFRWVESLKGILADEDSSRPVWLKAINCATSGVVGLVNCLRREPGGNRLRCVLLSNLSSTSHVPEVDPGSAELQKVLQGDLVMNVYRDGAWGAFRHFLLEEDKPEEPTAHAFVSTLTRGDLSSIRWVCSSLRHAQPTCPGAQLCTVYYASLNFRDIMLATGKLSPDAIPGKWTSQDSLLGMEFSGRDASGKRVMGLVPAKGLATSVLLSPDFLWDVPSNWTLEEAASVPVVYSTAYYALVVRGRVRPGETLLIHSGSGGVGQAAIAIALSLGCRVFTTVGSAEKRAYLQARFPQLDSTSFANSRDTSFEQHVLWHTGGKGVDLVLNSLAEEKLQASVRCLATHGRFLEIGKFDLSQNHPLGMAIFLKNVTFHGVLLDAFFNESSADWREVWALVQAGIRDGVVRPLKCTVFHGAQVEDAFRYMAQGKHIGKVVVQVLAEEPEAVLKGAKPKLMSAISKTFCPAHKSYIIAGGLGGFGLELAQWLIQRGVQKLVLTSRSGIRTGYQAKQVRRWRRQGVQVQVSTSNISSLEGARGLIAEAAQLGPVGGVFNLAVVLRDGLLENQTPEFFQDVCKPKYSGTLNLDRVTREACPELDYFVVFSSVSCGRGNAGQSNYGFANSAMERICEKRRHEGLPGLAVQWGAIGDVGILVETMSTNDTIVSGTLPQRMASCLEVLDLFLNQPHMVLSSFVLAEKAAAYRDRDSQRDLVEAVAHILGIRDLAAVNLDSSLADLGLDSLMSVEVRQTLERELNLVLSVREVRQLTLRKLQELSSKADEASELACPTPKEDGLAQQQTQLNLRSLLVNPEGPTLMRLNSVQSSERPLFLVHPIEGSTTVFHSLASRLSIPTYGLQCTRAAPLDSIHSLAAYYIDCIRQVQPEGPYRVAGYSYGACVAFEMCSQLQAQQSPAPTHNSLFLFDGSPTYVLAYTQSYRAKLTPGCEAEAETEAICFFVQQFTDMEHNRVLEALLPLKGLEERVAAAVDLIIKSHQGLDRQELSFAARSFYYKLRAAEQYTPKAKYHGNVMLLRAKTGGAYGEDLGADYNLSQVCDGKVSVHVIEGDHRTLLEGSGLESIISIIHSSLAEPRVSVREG
Assay: FASN enzyme activity assay, fluorescence-based detection of CoA with CPM
Format: biochemical
Settings: 5 nM FASN, 150 μM NADPH, 10 μM acetyl-CoA, 25 μM malonyl-CoA, 90 minutes incubation; read-out: IC50 data for Compounds of Formulae I-V/V(a): Activity
pIC50: −log10 of the molar value. Counter-ions that a name gives are not always drawn.

Go through the items and report each one's pIC50.
1. CN1CCN(c2nccc3cc(-c4ccc(OC5CCN(C(=O)[C@H]6CCCO6)CC5)cc4)ccc23)CC1
2. CC(C)(C)OC(=O)N1CCC(Oc2ccc(-c3ccc(C#N)cc3)cc2)CC1

1. 5.00 to 6.00
2. 5.00 to 6.00

Go through the items and report each one's pIC50.
1. O=C(C1CC1)N1CCC(Oc2ccc(-c3cncc(-c4ccccc4)c3)cc2)CC1 [Example 384, TFA salt]
2. Cc1cncc2cc(-c3ccc(OC4CCN(C(=O)[C@H]5CCCO5)CC4)cc3)ccc12 [Example 459, HCl]
3. O=C([C@H]1CCCO1)N1CCC(Oc2ccc(-c3ccc4cccnc4c3OCCN3CCCC3)cc2)CC1 [Example 183, HCl]
4. Cc1c(-c2ccc(OC3CCN(C(=O)C4CC4)CC3)cc2)ccc2cccnc12
5. CCC(=O)N1CCC(Oc2ccc(-c3ccc4cccnc4c3OCCN3CCOCC3)cc2)CC1

1. 5.00 to 6.00
2. 7.00 to 9.00
3. 5.00 to 6.00
4. 7.00 to 9.00
5. 5.00 to 6.00

Go through the items and report each one's pIC50.
1. Cc1cc(-c2cnc3ccccc3c2)ccc1OC1CCN(C(=O)C(C)C)CC1
2. CCOc1c(-c2ccc(OC3CCN(C(=O)C4CC4)CC3)cc2)ccc2cccnc12 [Example 168, HCl]
3. O=C(C1CC1)N1CCC(Oc2ccc(-c3cnc4ccccc4c3)c(F)c2)CC1

1. 5.00 to 6.00
2. 6.00 to 7.00
3. 7.00 to 9.00

Go through the items and report each one's pIC50.
1. CCC(=O)N1CCC(Oc2ccc(-c3ccc4cccnc4c3)cc2Cl)CC1
2. Cc1c(-c2ccc(O[C@H]3C[C@H]4CC[C@@H](C3)N4C(=O)C3CC3)cc2)ccc2cccnc12 [Example 370, HCl]
3. CCC(=O)N1CCC(Oc2ccc(-c3cc4ncccc4cc3C)cc2)CC1
4. CC(C)C(=O)N1CCC(Oc2ccc(-c3ccc4cccnc4c3)nc2)CC1
5. Cc1cnc2cc(-c3ccc(OC4CCN(C(=O)[C@H]5CCCO5)CC4)cc3)ccc2c1
6. O=C([C@H]1CCCO1)N1CCC(Oc2ccc(-c3cnc4ccccc4c3)cc2)CC1 [Example 103, HCl]

1. 5.00 to 6.00
2. 6.00 to 7.00
3. 5.00 to 6.00
4. 5.00 to 6.00
5. 5.00 to 6.00
6. 7.00 to 9.00

Go through the items and report each one's pIC50.
1. CN(c1ccc(-c2cnc3ccccc3c2)cc1)C1CCN(C(=O)[C@H]2CCCO2)CC1 [Example 528, HCl]
2. COc1cccc2cc(-c3ccc(OC4CCN(C(=O)C5CC5)CC4)cc3)cnc12
3. CCC(=O)N1CCC(Oc2ccc(-c3cnc4cc(OC)c(C)cc4c3)cc2)CC1
4. COc1ccc2cc(-c3ccc(OC4CCN(C(=O)[C@H]5CCCO5)CC4)cc3)cnc2c1
5. N#Cc1ccc(-c2ccc(OC3CCN(C(=O)[C@H]4CCCO4)CC3)cc2)cc1
6. Cc1cc(OC2CCN(C(=O)C(C)C)CC2)ccc1-c1cnc2ccccc2c1

6.00 to 7.00
6.00 to 7.00
5.00 to 6.00
7.00 to 9.00
7.00 to 9.00
5.00 to 6.00

Go through the items and report each one's pIC50.
1. CCC(=O)N1CCC(Oc2ccc(-c3ccc4cccnc4c3NCCN3CCCC3)cc2)CC1
2. O=C([C@H]1CCCO1)N1CCC(Oc2ccc(-c3ccc4cccnc4c3OCCCN3CCCC3)cc2)CC1 [Example 184, HCl]
3. CCC(=O)N1CCC(Oc2ccc(-c3ccc4cnc(N)cc4c3)cc2)CC1

["5.00 to 6.00", "6.00 to 7.00", "6.00 to 7.00"]

Go through the items and report each one's pIC50.
1. CCONC(=O)N1CCC(Oc2ccc(-c3ccc4cccnc4c3C)cc2)CC1
2. CONC(=O)N1CCC(Oc2ccc(-c3ccc4cccnc4c3C)cc2)CC1
3. CCC(=O)N1CCC(Oc2ccc(-c3ccc4cccnc4c3C)cc2F)CC1
4. CCC(=O)N1CCC(Oc2ccc(-c3cnc4c(c3)CCCC4)cc2)CC1

1: 7.00 to 9.00; 2: 7.00 to 9.00; 3: 7.00 to 9.00; 4: 5.00 to 6.00

Go through the items and report each one's pIC50.
1. CCC(=O)N1CCC(Oc2ccc(-c3ccc(-c4ccccc4)nc3)cc2)CC1
2. Cc1cccc2ncc(-c3ccc(OC4CCN(C(=O)C5CC5)CC4)cc3)cc12 [Example 461, HCl]
3. O=C(C1CC1)N1CCC(Oc2ccc(-c3cncc(Oc4ccccc4)c3)cc2)CC1 [Example 399, HCl]
4. CCC(=O)N1CCC(Nc2ccc(-c3cnc4ccccc4c3)cc2)CC1 [Example 526, HCl]

1. 5.00 to 6.00
2. 6.00 to 7.00
3. 5.00 to 6.00
4. 5.00 to 6.00
